- experimental-system: T1, NR1 construct with mutation N368Q (human, UniProt Q05586 19-938)
- T1 construct: whole, on cells; also called mutated NR1 construct; the mutant
- method-summary: immunofluorescence staining of HEK293 cells transfected with NR1 N368Q
assay-endpoint: binding result

>>> endpoint_value("007-168 (antibody, human IgG1, V domains shown) VH: VQLVQSGAEAKKPGESLKISCKASGYSFTTFWIGWVRQMPGSGLEWIGIIYPGDSDTRYSPSFQGHVTISADRSTSTAYLQWSSLKASDTAMYYCARSAVFDYWGQGTLVTVSS VL: EIVMTQSPATLSVSPGGRATLSCRASQSVSSNLAWYQQKPGQAPRLLIYGASTRATGIPVRFSGSGSGTEFTLTISSLQSEDFAVYYCQQYNNWPTSWTFGQGTKVEIK")
"no binding"
>>> endpoint_value("007-169 (antibody, V domains shown, also called 007-169-HC; 007-169-LC) VH: EVQLVQSGAEVKKPGESLKISCKGSGYSFTSYWIGWVRQMPGKGLEWMGIIYPGDSDTRYSPSFQGQVTISADKSISTAYLQWSSLKASDTAMYYCARDYGDYYFDYWGQGTLVTVSS VL: QSALTQPRSVSGSPGQSVTISCTGTSSDVGGYNYVSWYQQHPGKAPKLMIYDVSKRPSGVPDRFSGSKSGNTASLTISGLQAEDEADYYCCSYAGSYTGVFGEGTKLTVL")
"no binding"
>>> endpoint_value("007-124 (antibody, human IgG1, V domains shown, also called 007-124-HC; 007-124-LC) VH: EVQLVESGGGVGRPGGSLRLSCAASGFTFDDYGMSWVRQVPGKGLEWVSGINWSGADTGYADSVKGRFTISRDNAKNSLYLQMNSLRVEDTALYHCAREVGIAVTGYWFDPWGQGTLVTV VL: SYELTQPPSVSVAPGQTARISCGGNHSESVHWYQQKPGQAPVLVVYDDSDRPSGIPERFSGSKSGNTATLTISRVEGGDEAEYYCQVWDSSSDHPGVVFGGGTKLTVL")
"no binding"

Reference for the values: patent US20180244802A1
